# system under test: EGFR (Homo sapiens)
# Construct: The intracellular portion of EGFR started at nucleotide 2189 (corresponding to amino acid 667) and ended at the termination codon
# Sequence (P00533 669-1210 limits assumed): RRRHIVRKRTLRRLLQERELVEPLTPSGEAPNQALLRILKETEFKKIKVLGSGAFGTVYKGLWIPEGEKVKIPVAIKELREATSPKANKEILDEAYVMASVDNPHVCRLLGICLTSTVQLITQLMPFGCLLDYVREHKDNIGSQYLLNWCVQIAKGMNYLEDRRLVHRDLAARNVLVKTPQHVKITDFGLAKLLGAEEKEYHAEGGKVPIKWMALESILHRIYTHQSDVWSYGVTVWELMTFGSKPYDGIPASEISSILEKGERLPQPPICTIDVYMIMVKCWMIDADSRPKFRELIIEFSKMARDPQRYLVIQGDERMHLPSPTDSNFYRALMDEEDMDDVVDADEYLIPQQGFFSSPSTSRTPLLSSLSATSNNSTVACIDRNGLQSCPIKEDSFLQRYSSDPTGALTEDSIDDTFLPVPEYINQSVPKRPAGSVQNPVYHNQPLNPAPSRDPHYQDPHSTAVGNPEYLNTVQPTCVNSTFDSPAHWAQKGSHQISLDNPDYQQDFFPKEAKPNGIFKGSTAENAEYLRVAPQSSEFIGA
# run description: EGFR Kinase Assay
# measurement context: GST-EGFR, ATP 5 μM
pIC50: −log10 of the molar value.

compound	pIC50
O=C(NCCN1CCOCC1)c1sc2ncnc3c2c1NC(=O)N3c1ccc2c(ccn2Cc2cccc(F)c2)c1	7.15
O=C(Nc1ccc(NCCCN2CCOCC2)nc1)c1sc2ncnc3c2c1NC(=O)N3c1ccc(Br)cc1F	6.07
O=C(O)c1sc2ncnc3c2c1NC(=O)N3c1ccc(Oc2ccccc2)cc1	6.34
O=C(Nc1ccc(CN2CCOCC2)cc1)c1sc2ncnc3c2c1NC(=O)N3c1ccc(Oc2ccccc2)c(Cl)c1	7.23
COc1ccc(-c2sc3ncnc4c3c2NC(=O)N4c2ccc(F)c(Cl)c2)cc1OC	5.99
COc1cc(NC(=O)c2sc3ncnc4c3c2NC(=O)N4c2ccc(OCc3ccco3)c(Cl)c2)ccc1CN1CCCCC1	7.80
Cc1ccc(N2C(=O)Nc3c(C(=O)NC4CCN(C)CC4)sc4ncnc2c34)cc1Br	6.84
COc1cc(NC(=O)c2sc3ncnc4c3c2NC(=O)N4c2ccc(Oc3cccnc3)cc2)ccc1CN1CCOCC1	6.97
COc1ccc(N2C(=O)Nc3c(C(=O)Nc4ccc(CN5CCCCC5)cc4)sc4ncnc2c34)cc1Cl	6.46
COc1ccc(CC(=O)Nc2sc3ncnc4c3c2NC(=O)N4c2ccc(F)c(Cl)c2)cc1OC	5.61
O=C(Nc1ccc(CN2CCCCC2)cc1)c1sc2ncnc3c2c1NC(=O)N3c1cccc(Oc2ccccc2)c1	7.41
O=C(Nc1ccc(CN2CCOCC2)cc1)c1sc2ncnc3c2c1NC(=O)N3c1ccc(Cc2ccccc2)cc1	7.64
O=C(Nc1ccc(CN2CCOCC2)c(C(F)(F)F)c1)c1sc2ncnc3c2c1NC(=O)N3c1ccc(Oc2ccccc2)cc1	6.50
COc1cc(NC(=O)c2sc3ncnc4c3c2NC(=O)N4c2cc(OC)c(OC)c(OC)c2)ccc1OCCN1CCOCC1	4.38
O=C(Nc1ccc(CN2CCOCC2)cc1)c1sc2ncnc3c2c1NC(=O)N3c1ccc(F)cc1Cl	6.65
O=C(Nc1ccc(CN2CCOCC2)cc1)c1sc2ncnc3c2c1NC(=O)N3c1ccc(Oc2cccnc2)cc1	7.05
O=C(Nc1ccc(CN2CCCCC2)cc1)c1sc2ncnc3c2c1NC(=O)N3c1ccc(F)c(Cl)c1	8.05
COc1cc(NC(=O)c2sc3ncnc4c3c2NC(=O)N4c2ccc(Br)cc2F)ccc1OCCN1CCOCC1	6.39
O=C(Nc1ccc(CN2CCCC(CO)C2)cc1)c1sc2ncnc3c2c1NC(=O)N3c1ccc(Oc2ccccc2)cc1 (stereo not shown)	6.49
O=C(Nc1ccc(CN2CCOCC2)cc1)c1sc2ncnc3c2c1NC(=O)N3c1ccc(Br)cc1	6.69
CN1CCC(NC(=O)c2sc3ncnc4c3c2NC(=O)N4c2ccc(Oc3ccccc3)cc2)CC1	7.20
COc1cc(NC(=O)c2sc3ncnc4c3c2NC(=O)N4c2ccc(Oc3ccccc3)cc2)ccc1OCCN1CCOCC1	7.70
COc1cc(NC(=O)c2sc3ncnc4c3c2NC(=O)N4c2ccc(F)cc2Cl)ccc1OCCN1CCCCC1	6.48
CN(C)c1cc(NC(=O)c2sc3ncnc4c3c2NC(=O)N4c2ccc(Oc3ccccc3)cc2)ccc1CN1CCOCC1	7.02
O=C(Nc1ccc(CN2CCC(O)CC2)cc1)c1sc2ncnc3c2c1NC(=O)N3c1ccc(Oc2ccccc2)cc1	7.77
O=C(Nc1ccc(CN2CCOCC2)cc1)c1sc2ncnc3c2c1NC(=O)N3c1ccc(F)c(Cl)c1	7.39
O=C(Nc1ccc(CN2CCCCC2)cc1)c1sc2ncnc3c2c1NC(=O)N3c1ccc(Oc2ccccc2)cc1	8.00
COc1ccc(NC(=O)c2sc3ncnc4c3c2NC(=O)N4c2ccc(F)c(Cl)c2)cc1OC	7.43
O=C(Nc1ccc(CN2CCOCC2)cc1)c1sc2ncnc3c2c1NC(=O)N3c1ccc(Oc2cccnc2)c(Cl)c1	6.88
COc1ccc(N2C(=O)Nc3c(C(=O)Nc4ccc(OCC5CCCCO5)c(OC)c4)sc4ncnc2c34)c(F)c1 (stereo not shown)	6.16
COc1ccc(C(=O)Nc2sc3ncnc4c3c2NC(=O)N4c2ccc(F)c(Cl)c2)cc1OC	5.98
